# study target: human CB2 receptors (Homo sapiens)
# Construct: expressed in transfected cells; membrane preparation
# Sequence (P34972 whole entry): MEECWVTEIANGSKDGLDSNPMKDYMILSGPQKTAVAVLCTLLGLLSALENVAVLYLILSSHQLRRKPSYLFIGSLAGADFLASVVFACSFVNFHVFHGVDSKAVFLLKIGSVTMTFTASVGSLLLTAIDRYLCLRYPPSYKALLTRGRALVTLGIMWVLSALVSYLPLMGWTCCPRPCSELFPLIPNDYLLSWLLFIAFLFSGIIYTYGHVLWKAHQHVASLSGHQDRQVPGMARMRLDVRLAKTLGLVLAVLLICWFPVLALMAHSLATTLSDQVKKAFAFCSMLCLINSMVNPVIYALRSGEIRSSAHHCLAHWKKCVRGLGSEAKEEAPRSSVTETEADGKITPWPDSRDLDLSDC
# assay remarks: human CB2 radioligand binding assay
# pKi per entry
By convention, pKi is the negative base-10 log of a molar concentration.

# compound, pKi
records = [
    ("Cn1c(C(C)(C)C)c/c(=N\\C(=O)c2cc(C(F)(F)F)ccc2CCC(C)(C)O)n1CC1CCC1 [Example 7]", 7.68),
    ("Cn1c(C(C)(C)C)c/c(=N\\C(=O)c2cc(C(F)(F)F)ccc2/C=C/C(C)(C)O)n1CC1CCC1 [Example 6]", 7.96),
    ("CCCCn1nc(C(C)(C)C)s/c1=N\\C(=O)c1cc(C(F)(F)F)ccc1CO [Example 20]", 8.72),
]

Continue with the next compound.
# input Entry under review: CCCCn1nc(C(C)(C)C)s/c1=N\C(=O)c1cc(C(F)(F)F)ccc1CN1CC(C(=O)OC)C1 [Example 21] . Reported pKi?
# output 8.41
